The following are reported pIC50 results, target or system Acetylcholinesterase (Electrophorus electricus, UniProt O42275).
One number for each entry, as −log10 of the molar value.

Examples with their reported pIC50 follow.
molecule	readout_kind	readout_value
COc1cc2c(cc1OCC1CC1)C(=O)C(CC1CCN(Cc3ccccc3)CC1)C2 (stereo not drawn)	pIC50	7.35
COc1cc2c(cc1OC1CCCC1)CC(CC1CCN(Cc3ccccc3)CC1)C2=O (stereo not drawn)	pIC50	6.68
COc1cc2c(cc1OCCN1CCCCC1)C(=O)C(Cc1ccncc1)C2 (stereo not drawn)	pIC50	7.15
COc1cc2c(cc1OC1CCCC1)C(=O)C(Cc1ccncc1)C2 (stereo not drawn)	pIC50	4.25
COc1cc2c(cc1OC1CCCC1)C(=O)C(CC1CCN(Cc3ccccc3)CC1)C2 (stereo not drawn)	pIC50	7.24
COc1cc2c(cc1OC1CCCC1)C(=O)/C(=C/c1ccncc1)C2	pIC50	4.94

Provide reported pIC50 for each item, in the same order as listed.
1. COc1cc2c(cc1OC1CCCC1)C(=O)C(Cc1ccccn1)C2 (stereo not drawn)
2. COc1ccc(CC2Cc3cc(OC)c(OCCN4CCCCC4)cc3C2=O)cc1 (stereo not drawn)
3. COc1cc2c(cc1OCC(C)C)C(=O)C(CC1CCN(Cc3ccccc3)CC1)C2 (stereo not drawn)

Solution:
1. 4.42
2. 6.09
3. 6.30

Provide reported pIC50 for each item, in the same order as listed.
1. COc1cc2c(cc1OC1CCCC1)C(=O)/C(=C/c1cccnc1)C2
2. COc1cc2c(cc1OC1CCCC1)CC(Cc1ccncc1)C2=O (stereo not drawn)
3. COc1cc2c(cc1OC1CCCC1)C/C(=C\c1cccnc1)C2=O
4. COc1cc2c(cc1OCC(C)C)CC(CC1CCN(Cc3ccccc3)CC1)C2=O (stereo not drawn)
5. COc1cc2c(cc1OCC(C)C)CC(Cc1ccncc1)C2=O (stereo not drawn)
6. COc1cc2c(cc1OCC1CC1)CC(CC1CCN(Cc3ccccc3)CC1)C2=O (stereo not drawn)
7. COc1cc2c(cc1OCCN1CCCC1)C(=O)C(Cc1ccncc1)C2 (stereo not drawn)
8. COc1cc2c(cc1OCC1CC1)C(=O)C(Cc1ccncc1)C2 (stereo not drawn)

Solution:
1: 5.08; 2: 4.52; 3: 4.93; 4: 6.68; 5: 4.19; 6: 6.68; 7: 5.97; 8: 4.44

Exercise: Answer with the recorded pIC50 of COc1cc2c(cc1OCCN1CCCCC1)C(=O)C(Cc1cccnc1)C2 (stereo not drawn) only.
Solution: 6.55
